Catalogue of compounds with associated IC50
target: KAT-7 (Homo sapiens (Human), UniProt O95251); assay: KAT-7 biochemical inhibition assay (SAMDI mass spectrometry)
Sequence (O95251 other isoform, or with tags, fused parts or gaps): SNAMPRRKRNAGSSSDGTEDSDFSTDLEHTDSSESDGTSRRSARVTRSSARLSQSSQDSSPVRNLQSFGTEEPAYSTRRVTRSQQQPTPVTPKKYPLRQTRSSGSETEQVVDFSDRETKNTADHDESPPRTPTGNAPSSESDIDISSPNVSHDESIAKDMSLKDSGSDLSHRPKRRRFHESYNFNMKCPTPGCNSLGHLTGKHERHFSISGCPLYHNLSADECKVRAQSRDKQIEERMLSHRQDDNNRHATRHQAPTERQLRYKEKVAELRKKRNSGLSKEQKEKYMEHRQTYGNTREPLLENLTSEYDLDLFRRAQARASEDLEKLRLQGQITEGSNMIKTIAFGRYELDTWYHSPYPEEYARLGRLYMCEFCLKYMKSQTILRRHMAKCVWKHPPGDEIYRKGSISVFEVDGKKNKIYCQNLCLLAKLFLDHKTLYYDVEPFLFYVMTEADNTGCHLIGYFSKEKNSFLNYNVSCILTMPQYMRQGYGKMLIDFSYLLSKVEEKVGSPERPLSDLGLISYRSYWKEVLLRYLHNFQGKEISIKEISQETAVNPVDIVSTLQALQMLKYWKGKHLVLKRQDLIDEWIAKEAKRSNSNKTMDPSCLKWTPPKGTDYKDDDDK

input: Using known records, supply IC50 for CCNC(=O)N[C@H]1C[C@@H](CS(=O)(=O)NNC(=O)c2cc(-c3cn(C)cn3)cc(Cl)c2F)C1
output: < 10 µM

Continuing:
input: Assign IC50 to the following record: CNC(=S)N1CC[C@H](CS(=O)(=O)NNC(=O)c2cc(-c3cn(C)cn3)cc(Cl)c2F)C1
output: < 10 µM

input: # return recorded IC50 for entry CNC(=O)N1CC(CS(=O)(=O)NNC(=O)c2cc(-c3cn(C)cn3)cc(Cl)c2F)C1
output: < 10 µM

input: Please indicate IC50 recorded for Cc1cc(-c2cn(C)cn2)cc(C(=O)NNS(=O)(=O)CC2CCCCC2)c1C
output: 10 to 50 µM
